# Test system: Plasmodium berghei
# ASSAY SUMMARY: Luciferase/luciferin-expressing antifolate-resistant parasites were used to infect a culture of HepG2 cells that were pre-incubated with compounds. Infected hepatocytes emit light due to the luciferase reaction. Assay results are presented as the percent inhibition of light emission compared to control. […]
# Assay type: functional
# ASSAY CONDITIONS: sporozoite, FFLUC_HILL_SLOPE 0.18, FFLUC_R_SQUARED 0.146, PBLUC_HILL_SLOPE 3.27, PBLUC_R_SQUARED 0.516, read-out: LUCIFERASE INFECTION ASSAY - IC50
RESULT TYPE: IC50 (µM)
Respond numerically; units are µM and should not be typed.

Qu. Query: IC50; subject: `OCc1cccc(-c2cnc3cnc(-c4ccc(CNc5ccccc5)cc4)cn23)c1`
Ans. 6.25

* * *

# Tested on: Plasmodium berghei
# ASSAY SUMMARY: Luciferase/luciferin-expressing antifolate-resistant parasites were used to infect a culture of HepG2 cells that were pre-incubated with compounds. Infected hepatocytes emit light due to the luciferase reaction. Assay results are presented as the percent inhibition of light emission compared to control. […]
# Format: functional
# ASSAY CONDITIONS: sporozoite, PBLUC_HILL_SLOPE 15.1, PBLUC_R_SQUARED 0.212, read-out: LUCIFERASE INFECTION ASSAY - IC50
RESULT TYPE: IC50

Qu. Give the reported IC50 for `O=[N+]([O-])c1cc(/C=N/O)ccc1Sc1ccccc1` (system: Plasmodium berghei).
Ans. > 12 µM

* * *

# System: Plasmodium berghei
# ASSAY SUMMARY: Luciferase/luciferin-expressing antifolate-resistant parasites were used to infect a culture of HepG2 cells that were pre-incubated with compounds. Infected hepatocytes emit light due to the luciferase reaction. Assay results are presented as the percent inhibition of light emission compared to control. […]
# Format: functional
# ASSAY CONDITIONS: sporozoite, FFLUC_HILL_SLOPE 9.07, FFLUC_R_SQUARED 0.413, PBLUC_HILL_SLOPE 2.18, PBLUC_R_SQUARED 0.79, read-out: LUCIFERASE INFECTION ASSAY - IC50
RESULT TYPE: IC50 (µM)
Respond numerically; units are µM and should not be typed.

Qu. Give the reported IC50 for `O=C(NCc1ccccc1)/C(=C/c1ccc(OCc2ccccc2)cc1)c1nc2ccccc2[nH]1` (system: Plasmodium berghei).
Ans. 0.462

* * *

# Tested on: Plasmodium berghei
# ASSAY SUMMARY: Luciferase/luciferin-expressing antifolate-resistant parasites were used to infect a culture of HepG2 cells that were pre-incubated with compounds. Infected hepatocytes emit light due to the luciferase reaction. Assay results are presented as the percent inhibition of light emission compared to control. […]
# Type: functional
# ASSAY CONDITIONS: sporozoite, HEPG2TOX_HILL_SLOPE 0.68, HEPG2TOX_R_SQUARED 0.808, PBLUC_HILL_SLOPE 0.888, PBLUC_R_SQUARED 0.682, read-out: LUCIFERASE INFECTION ASSAY - IC50
RESULT TYPE: pIC50
Remember the convention: pIC50 equals -log10 of concentration in molar.

Qu. Query: pIC50; subject: CC(Nc1ncnc2sccc12)c1ccc(-n2cncn2)cc1 (stereo unspecified)
Ans. 5.71

* * *

# Tested on: Plasmodium berghei
# ASSAY SUMMARY: Luciferase/luciferin-expressing antifolate-resistant parasites were used to infect a culture of HepG2 cells that were pre-incubated with compounds. Infected hepatocytes emit light due to the luciferase reaction. Assay results are presented as the percent inhibition of light emission compared to control. […]
# Format: functional
# ASSAY CONDITIONS: sporozoite, FFLUC_HILL_SLOPE 2.29, FFLUC_R_SQUARED 0.777, PBLUC_HILL_SLOPE 2.35, PBLUC_R_SQUARED 0.372, read-out: LUCIFERASE INFECTION ASSAY - IC50
RESULT TYPE: pIC50
Remember the convention: pIC50 equals -log10 of concentration in molar.

Qu. Query: pIC50; subject: `Cc1ccc(N2C(=O)/C(=C/c3ccc(C(C)C)cc3)N=C2SCc2cccc(S(=O)(=O)N(C)C)c2)cc1`
Ans. 5.16

Cited source for all entries: ChEMBL document CHEMBL4483862
